Cited source: patent US6160166A

Let's look at some molecules and their measured IC50.
Tested on: human dermal Microvascular endothelial cells
procedure text: Inhibition of bFGF-stimulated growth of human microvascular endothelial cells
Format: cell-based
experimental parameters: Homo sapiens, Endothelial cell; bFGF-stimulated; estimated from dose response curve
Write the quantity with the unit trailing the number.

O=C(Nc1ccc(C(=O)Nc2ccc(P(=O)(O)O)cc2)cc1)Nc1ccc(C(=O)Nc2ccc(P(=O)(O)O)cc2)cc1 [NF 681] = 1.5 µM
O=C(Nc1ccc(C(=O)Nc2cccc(P(=O)(O)O)c2)cc1)Nc1ccc(C(=O)Nc2cccc(P(=O)(O)O)c2)cc1 [NF 069] = 75 µM
Cc1ccc(C(=O)Nc2ccc(S(=O)(=O)O)c3cc(S(=O)(=O)O)cc(S(=O)(=O)O)c23)cc1NC(=O)c1cccc(NC(=O)Nc2cccc(C(=O)Nc3cc(C(=O)Nc4ccc(S(=O)(=O)O)c5cc(S(=O)(=O)O)cc(S(=O)(=O)O)c45)ccc3C)c2)c1 [suramin] = 437 µM

Note: attention shifts to another entry.
Req: Could you please provide reported IC50 for O=C(Nc1cccc(C(=O)Nc2ccc(P(=O)(O)O)cc2)c1)Nc1cccc(C(=O)Nc2ccc(P(=O)(O)O)cc2)c1 [NF 067] ? Thanks!
Resp: 19.4 µM
